assay: Solubility of apomorphine in phosphate buffers at varying pH (Example 14); format: physicochemical; conditions: pH 3.00 phosphate buffer, stirred ~18 hours; unit assumed
PROPERTY: solubility (µg/mL)
Numbers only, in µg/mL.

Qu. # input compound: CN1CCc2cccc3c2[C@H]1Cc1ccc(O)c(O)c1-3 [Apomorphine Free Base, 6αβ-aporphine-10, 11 diol] ; wanted: its solubility
Ans. 3700

====

experiment: Solubility of apomorphine in phosphate buffers at varying pH (Example 14); type: physicochemical; conditions: pH 6.00 phosphate buffer, stirred ~18 hours; unit assumed
PROPERTY: solubility (mg/mL)
Numbers only, in mg/mL.

Qu. Look at this molecule and give its reported solubility. CN1CCc2cccc3c2[C@H]1Cc1ccc(O)c(O)c1-3 [Apomorphine Free Base, 6αβ-aporphine-10, 11 diol]
Ans. 2

====

Experiment: Solubility of apomorphine in phosphate buffers at varying pH (Example 14)
Type: physicochemical
Conditions: pH 2.50 phosphate buffer, stirred ~18 hours; hydrochloride; unit assumed
Procedure: The testing procedure was as followings: • 1. […] The samples were stirred for ˜18 hours before analysis. • 4. […] The samples were stirred for ˜18 hours before analysis. • 5. After stirring ˜2mL of the supernatant was obtained from each vial and centrifuge at 12000 RPM to precipitate un-dissolved drug. • 6. […]
Structures can show the parent of a compound that is named as a salt.
PROPERTY: solubility
// unit must come after the numeric part

Qu. Can you share its solubility? I mean this compound: CN1CCc2cccc3c2[C@H]1Cc1ccc(O)c(O)c1-3 [Apomorphine HCl, apomorphine hydrochloride]
Ans. 22.8 mg/mL

====

Assay: Solubility of apomorphine in phosphate buffers at varying pH (Example 14)
Format: physicochemical
Conditions: phosphate buffer, pH 6.6, aqueous buffer, thermodynamic from solid, pH 6.60 phosphate buffer, stirred ~18 hours; read-out: solubility
Description: The testing procedure was as followings: • 1. […] The samples were stirred for ˜18 hours before analysis. • 4. […] The samples were stirred for ˜18 hours before analysis. • 5. After stirring ˜2mL of the supernatant was obtained from each vial and centrifuge at 12000 RPM to precipitate un-dissolved drug. • 6. […]
Structures can show the parent of a compound that is named as a salt.
PROPERTY: solubility (µg/mL)
Numbers only, in µg/mL.

Qu. Query: solubility; subject: CN1CCc2cccc3c2[C@H]1Cc1ccc(O)c(O)c1-3 [Apomorphine HCl, apomorphine hydrochloride]
Ans. 1900

====

test: Solubility of apomorphine in phosphate buffers at varying pH (Example 14); format: physicochemical; settings: pH 2.50 phosphate buffer, stirred ~18 hours; unit assumed
PROPERTY: solubility (µg/mL)
Answers are plain numbers, in µg/mL.

Qu. Which solubility value is on record for CN1CCc2cccc3c2[C@H]1Cc1ccc(O)c(O)c1-3 [Apomorphine Free Base, 6αβ-aporphine-10, 11 diol] ?
Ans. 9200

====

test: Solubility of apomorphine in phosphate buffers at varying pH (Example 14); assay type: physicochemical; conditions: pH 6.00 phosphate buffer, stirred ~18 hours; hydrochloride; unit assumed
Counter-ions that a name gives are not always drawn.
PROPERTY: solubility (mg/mL)
Numbers only, in mg/mL.

Qu. Which measured solubility value corresponds to CN1CCc2cccc3c2[C@H]1Cc1ccc(O)c(O)c1-3 [Apomorphine HCl, apomorphine hydrochloride] ?
Ans. 7.4

====

test: Solubility of apomorphine in phosphate buffers at varying pH (Example 14); type: physicochemical; settings: pH 3.00 phosphate buffer, stirred ~18 hours; hydrochloride; unit assumed
Structures can show the parent of a compound that is named as a salt.
PROPERTY: solubility

Qu. What measured solubility goes with CN1CCc2cccc3c2[C@H]1Cc1ccc(O)c(O)c1-3 [Apomorphine HCl, apomorphine hydrochloride] ?
Ans. 21.6 mg/mL
